These data points were gathered from PubChem BioAssay (Tox21).

assay_protocol: qHTS assay for small molecules that induce genotoxicity in human embryonic kidney cells expressing luciferase-tagged ATAD5 - cell viability (AID 651634); further: nearly all actives have a fitted effect of over 25% in size
measurement_parameters: HEK293T ATAD5-luc cells viability, CellTiter-Fluor, 15.5 h; series mostly up to 83.3 µM
Results filed as inconclusive are left out. Calls of active or inactive are those of the source. The call rests on the fitted dose curve.
Outcome codes: yes for active, no for inactive

> print(dat)
                                   compound  assigned.class
1  O=C1NCN(c2ccccc2)C12CCN(CCCC(c1ccc(F)cc1)c1ccc(F)cc1)CC2             yes
2                 COC(=O)NCCC[Si](OC)(OC)OC              no
3        CCN(CC)CCCN(c1ccccc1)C1Cc2ccccc2C1             yes
4            CN(Cc1cc(Br)cc(Br)c1N)C1CCCCC1              no
5                             Cc1ccc(N)cc1O              no
6  C1CC(COCC2CO2)CCC1COCC1CO1 (configuration not stated)              no
7  COc1cc(C(=O)NS(=O)(=O)c2ccccc2C)ccc1Cc1cn(C)c2ccc(NC(=O)OC3CCCC3)cc12              no
